Kindly supply the reported fraction of imaged embryos annotated as normal kidney values for the records listed here.
- Tested on: Danio rerio Tg(wt1b:EGFP) embryo, pronephros
- MEASUREMENT PROTOCOL: fraction of imaged embryos annotated as normal kidney; higher = less nephrotoxic; extreme values may be limits of the assay
- STATED CONDITIONS: 25 µM; exposure: 24-48 hpf
Where a name gives a salt, the structure may show the parent alone.
// keep it numeric: no unit symbol after the value

Task: Please look up its fraction of imaged embryos annotated as normal kidney: CC(=O)[C@H]1CC[C@H]2[C@@H]3CC[C@H]4C[C@H](O)CC[C@]4(C)[C@H]3C(=O)C[C@]12C
Result: 0.583

Task: Do the same for CC(C)(C)NCC(O)c1ccccc1Cl (stereo not drawn) please
Result: 0.917

Task: Try this compound next: CC(C)[N+](C)(CCC(C(N)=O)(c1ccccc1)c1ccccc1)C(C)C [Isopropamide iodide]
Result: 0.818

Task: Check COc1cccc(C2(O)CCCCC2CN(C)C)c1 (stereo not drawn) [Tramadol hydrochloride] too.
Result: 0.833

Task: Also, CC(C)C[C@H]1C(=O)N2CCC[C@H]2[C@]2(O)O[C@](NC(=O)[C@@H]3C=C4c5cccc6[nH]c(Br)c(c56)C[C@H]4N(C)C3)(C(C)C)C(=O)N12 [Bromocryptine mesylate] please.
Result: 0.833

Task: CC[C@@H](C(N)=O)N1CCCC1=O ?
Result: 0.917

Task: Here is the next compound: C[C@H](N)[C@H](O)c1ccc(O)c(O)c1
Result: 0.667

Task: Cool, now NCC1(CC(=O)O)CCCCC1
Result: 0.75

###

- System: Danio rerio Tg(wt1b:EGFP) embryo, pronephros
- MEASUREMENT PROTOCOL: glomerular separation, fold change vs DMSO control; higher = glomeruli further apart (abnormal)
- STATED CONDITIONS: 25 µM; exposure: 24-48 hpf
Where a name gives a salt, the structure may show the parent alone.
Field: glomerular separation. Provide a value for each of the compounds that follow.
Write no unit; give the number alone.

Task: What reported glomerular separation corresponds to NCCCNCCSP(=O)(O)O on Danio rerio Tg(wt1b:EGFP) embryo, pronephros?
Result: 0.91

Task: Moving on to the next compound: COc1cc2c(c(OC)c1OC)-c1ccc(OC)c(=O)cc1[C@@H](NC(C)=O)CC2
Result: 1.2

Task: Consider next the compound CCC(=O)O[C@@](Cc1ccccc1)(c1ccccc1)[C@@H](C)CN(C)C [Levopropoxyphene napsylate] in the same way.
Result: 1.29

Task: Now this one: CC(C)(C)NCC(O)c1ccccc1Cl (stereo not given)
Result: 1.02

Task: Then what about the compound NC(=O)C[S+]([O-])C(c1ccccc1)c1ccccc1 (stereo not given) ?
Result: 1.04

Task: Follow-up entry: CC(=O)O[C@H]1CC[C@@]2(C)C(=CC[C@@H]3[C@@H]2CC[C@]2(C)C(=O)CC[C@@H]32)C1 [Dehydroisoandosterone 3-acetate]
Result: 1.13

Task: Likewise for C[C@H](N)[C@H](O)c1ccc(O)c(O)c1 ?
Result: 1.13

Task: Same again, this time with c1ccc2nc(N3CCNCC3)ccc2c1 [Quipazine dimaleate salt]
Result: 1.09

Task: Try COc1ccc(C(CN(C)C)C2(O)CCCCC2)cc1 (stereo not given) next.
Result: 0.684

Task: Subsequent entry: CC(C)N(CCC(C(N)=O)(c1ccccc1)c1ccccn1)C(C)C (stereo not given) [Disopyramide]
Result: 0.9

Task: Also CN1[C@@H]2CC[C@H]1C[C@@H](OC(=O)C(CO)c1ccccc1)C2 (stereo not given in full) [Atropine sulfate monohydrate] , if possible.
Result: 1.25

Task: And CN1CCC2(C)c3cc(O)ccc3N(C)C12 (single isomer, unassigned; (-)) [(-)-Eseroline fumarate salt] ?
Result: 0.883

Task: Also, CC(C)c1cccc(C(C)C)c1O please.
Result: 0.693

Task: Quick one: C[C@@]12N[C@@H](Cc3ccccc31)c1ccccc12 [(-)-MK 801 hydrogen maleate]
Result: 1.02

Task: Entry to check: C=C1C[C@@H]2[C@H](CC[C@]3(C)C(=O)CC[C@@H]23)[C@@]2(C)C=CC(=O)C=C12
Result: 0.893

Task: Would you mind doing O=P1(NCCCl)OCCCN1CCCl (stereo not given) [Ifosfamide] as well?
Result: 1.05

Task: Entry CC[C@@H](CO)NC(=O)[C@@H]1C=C2c3cccc4[nH]cc(c34)C[C@H]2N(C)C1 [Methylergometrine maleate] please
Result: 1.12

Task: Now the same for CCNCC(O)c1cccc(O)c1 (stereo not given) [Etilefrine hydrochloride]
Result: 0.79

Task: Item: COc1ccc(CN2CCNCC2)c(OC)c1OC [Trimetazidine dihydrochloride]
Result: 0.91

Task: // same read-out, input: CN1[C@@H]2CC[C@H]1C[C@@H](OC1c3ccccc3CCc3ccccc31)C2 [Deptropine citrate]
Result: 0.934

Task: Quick one: CCCC(C)(COC(N)=O)COC(=O)NC(C)C (stereo not given)
Result: 0.877

Task: Continue with O=c1[nH]oc2c1CCNC2 [THIP Hydrochloride]
Result: 0.923

Task: Also, C=CCC1(CC(C)C)C(=O)NC(=O)NC1=O please.
Result: 0.97

Task: Now give it for C[C@]12CC[C@H](O)C[C@H]1CC[C@@H]1[C@@H]2C[C@@H](O)[C@]2(C)[C@@H](C3=CC(=O)OC3)CC[C@]12O too.
Result: 0.711

Task: Ok, now S=C(NC1CCCCC1)N1CCC(c2cnc[nH]2)CC1 [Thioperamide maleate]
Result: 1.28

Task: Again, but for C[C@]12CCC(=O)C(O)=C1CC[C@@H]1[C@@H]2CC[C@]2(C)C(=O)CC[C@@H]12
Result: 1.16

Task: Same read-out for C#C[C@]1(O)CC[C@H]2[C@@H]3CCC4=CC(=O)CCC4=C3C=C[C@@]21CC ?
Result: 1.64

Task: Follow-up item: CC(C)c1c(CN(C)C(C)Cc2ccccc2)n(C)n(-c2ccccc2)c1=O (stereo not given)
Result: 0.985

Task: O=[N+]([O-])O[C@H]1CO[C@H]2[C@@H]1OC[C@H]2O[N+](=O)[O-] [Isosorbide dinitrate] ?
Result: 1.15

Task: For CC(C)(C)NCC(O)c1cc(Cl)c(N)c(Cl)c1 (stereo not given) [Clenbuterol hydrochloride] then?
Result: 1.04

Task: // repeat for C[C@]12CC[C@@H]3c4ccc(OC(=O)N(CCCl)CCCl)cc4CC[C@H]3[C@@H]1CC[C@@H]2O and report
Result: 2.15

Task: Again, but for C=C(C)[C@@H]1[C@H]2OC(=O)[C@@H]1[C@]1(O)C[C@H]3O[C@]34C(=O)O[C@H]2[C@]14C
Result: 1.19

Task: Also need CNC(=O)Oc1ccc2c(c1)[C@]1(C)CCN(C)[C@@H]1N2C [Eserine hemisulfate salt] , thanks.
Result: 1.12

Task: Also C1CCc2nnnn2CC1 ?
Result: 0.925

Task: One more compound: NCC(CC(=O)O)c1ccc(Cl)cc1 (racemic) [Baclofen (R,S)]
Result: 0.757
